Test system: OC43
Experiment: Drug screening: OC43 nucleoprotein staining in infected A549-mRuby cells
Format: cell-based, human beta coronavirus OC43
Conditions: Betacoronavirus 1, OC43, 96 h, 10 μM drug, MOI 0.3, 4 days; normalized to no-drug controls in the same plate; repeat #1; read-out: OC43_1: % staining of OC43 in screen repeat #1
Structures can show the parent of a compound that is named as a salt.
assayEndpoint: activity at 10 µM (%)
Number in %, nothing else.

Check out these entries, answers already filled in.
[
  {
    "molecule": "CCN(CCO)CCCC(C)Nc1ccnc2cc(Cl)ccc12 (centres unmarked) [Hydroxychloroquine Sulfate]",
    "activity at 10 µM (%)": 17.8
  },
  {
    "molecule": "CCCCc1oc2ccccc2c1C(=O)c1cc(I)c(OCCN(CC)CC)c(I)c1 [Amiodarone HCl]",
    "activity at 10 µM (%)": 18.8
  },
  {
    "molecule": "COCCCC/C(=N\\OCCN)c1ccc(C(F)(F)F)cc1 [Fluvoxamine maleate]",
    "activity at 10 µM (%)": 22.7
  },
  {
    "molecule": "CC(C)(O)CNc1nc(Nc2ccnc(C(F)(F)F)c2)nc(-c2cccc(C(F)(F)F)n2)n1 [Enasidenib (AG-221), Enasidenib]",
    "activity at 10 µM (%)": 23.3
  }
]

Value lookup for activity at 10 µM; key = CC(C)(C)c1nc(-c2cccc(NS(=O)(=O)c3c(F)cccc3F)c2F)c(-c2ccnc(N)n2)s1 [Dabrafenib (GSK2118436), Dabrafenib]
36.3

Value lookup for activity at 10 µM; key = N#Cc1ccc2[nH]cc(CCCCN3CCN(c4ccc5oc(C(N)=O)cc5c4)CC3)c2c1.O [Vilazodone HCl]
13
